# assayed.target: T1, soluble human CD3 epsilon chain (human, UniProt P07766 23-126)
# T1 construct: also called CD3ε
# T1 sequence (P07766 23-126 limits assumed): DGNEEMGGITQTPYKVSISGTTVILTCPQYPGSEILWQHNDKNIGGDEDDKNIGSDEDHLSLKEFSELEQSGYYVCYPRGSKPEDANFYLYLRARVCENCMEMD
# experiment.description: SPR
pKd: −log10 of the molar value.
parameter.measured: pKd

binder="TR01H063-E22Hh/none-Hi-Kn010G3/L0000-k0 (antibody, V domains shown, one-arm) VH: QVQLVESGGGVVQPGGSLRLSCAASGFTFSNAWMHWVRQAPGKGLEWVAQIKDKSQNYATYYAESVKGRFTISRADSKNSIYLQMNSLKTEDTAVYYCRYVHYAASYGVDAWGQGTTVTVSS VL: DIVMTQSPLSLPVTPGEPASISCRSSQSLVHSNRNTYLHWYQQKPGQAPRLLIYKVSNRFSGVPDRFSGSGSGTDFTLKISRVEAEDVGVYYCGQGTQVPYTFGQGTKLEIKR" parameter_measured=pKd numeric_value=7.36
binder="TR01H084-E22Hh/none-Hi-Kn010G3/L0011-k0 (antibody, V domains shown, one-arm) VH: QVQLVESGGGVVQPGGSLRLSCAASGFTFSNAWMHWVRQAPGKGLEWVAQIKDKSQNYATYYAESVKGRFTISRADSKNSIYLQMNSLKTEDTAVYYCRYVHYAAGYGVDIWGQGTTVTVSS VL: DIVMTQSPLSLPVTPGEPASISCRSSQPLVHSNRNTYLHWYQQKPGQAPRLLIYKVSNRFSGVPDRFSGSGSGTDFTLKISRVEAEDVGVYYCGQGTQVPYTFGQGTKLEIKR" parameter_measured=pKd numeric_value=7.70
binder="TR01H082-E22Hh/none-Hi-Kn010G3/L0270-k0 (antibody, V domains shown, one-arm) VH: QVQLVESGGGLVQPGRSLRLSCAASGFTFSNAWMHWVRQAPGKGLEWVAQIKDKSQNYATYYAESVKGRFTISRDDSKNSLYLQMNSLKTEDTAVYYCRYVHYAAGYGVDAWGQGTTVTVSS VL: DIVMTQSPLSLPVTPGEPASISCRSSQSLVHSNRQTYLHWYQQKPGQAPRLLIYKVSNRFSGVPDRFSGSGSGTDFTLKISRVEAEDVGVYYCGQGTQVPYTFGQGTKLEIK" parameter_measured=pKd numeric_value=7.13
binder="TR01H084-E22Hh/none-Hi-Kn010G3/L0000-k0 (antibody, V domains shown, one-arm) VH: QVQLVESGGGVVQPGGSLRLSCAASGFTFSNAWMHWVRQAPGKGLEWVAQIKDKSQNYATYYAESVKGRFTISRADSKNSIYLQMNSLKTEDTAVYYCRYVHYAAGYGVDIWGQGTTVTVSS VL: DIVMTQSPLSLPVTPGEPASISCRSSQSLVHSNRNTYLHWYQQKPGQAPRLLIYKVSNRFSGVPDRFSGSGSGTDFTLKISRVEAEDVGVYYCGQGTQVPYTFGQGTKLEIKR" parameter_measured=pKd numeric_value=7.67
binder="TR01H061-E22Hh/none-Hi-Kn010G3/L0000-k0 (antibody, V domains shown, one-arm) VH: QVQLVESGGGLVQPGRSLRLSCAASGFTFSNAWMHWVRQAPGKGLEWVAQIKDKSQNYATYYAESVKGRFTISRADSKNSIYLQMNSLKTEDTAVYYCRYVHYAASYGVDIWGQGTTVTVSS VL: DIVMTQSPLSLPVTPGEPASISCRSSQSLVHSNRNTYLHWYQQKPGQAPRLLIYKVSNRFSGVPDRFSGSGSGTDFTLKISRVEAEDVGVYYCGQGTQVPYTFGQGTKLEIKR" parameter_measured=pKd numeric_value=7.77
